Each recorded value in this set is attributed to paper PMC5397059.

# Protocol details: Intrinsic clearance (CLint) assay, human liver microsomes
# Format: in vitro ADME
# Study conditions: liver blood flow
Non-standard residues stand in square brackets, D forms with d. Residues, ends and D or L forms follow the SMILES beside them. *: point of attachment. dPhe(4-Cl) = N[C@H](Cc1ccc(Cl)cc1)C(=O)O; NMeN = CN[C@@H](CC(N)=O)C(=O)O; NMeL = CN[C@@H](CC(C)C)C(=O)O; NMeV = CN[C@H](C(=O)O)C(C)C; dOrn = NCCC[C@@H](N)C(=O)O; tBu = CC(C)(C)*
Use 70% as the dividing line for % LBF Human, with the line itself on the true (1) side and lower values as false (0).

Answered examples (3):
hey, is % LBF Human for this one >= 70%? CC[C@H](C)[C@@H]1NC(=O)[C@@H](CC(C)C)NC(=O)[C@H](CC(C)C)NC(=O)[C@H](Cc2c[nH]c3ccccc23)NC(=O)[C@@H](CCCN)NC(=O)[C@H](COC(C)(C)C)NC1=O [Compound 11c] (cyclo(IS(tBu)[dOrn]WL[dL]))
true (1)

hey, is % LBF Human for this one >= 70%? CC(C)C[C@H]1NC(=O)[C@@H](Cc2ccc(Cl)cc2)NC(=O)[C@H](Cc2c[nH]c3ccccc23)NC(=O)[C@@H](CCCN)NC(=O)[C@H](CC(N)=O)NC(=O)[C@H](C(C)C)NC1=O [Compound 17c] (cyclo(N[dOrn]W[dPhe(4-Cl)][dL]V))
false (0)

hey, is % LBF Human for this one >= 70%? CC(C)C[C@H]1NC(=O)[C@H](CC(C)C)N(C)C(=O)[C@H](Cc2c[nH]c3ccccc23)NC(=O)[C@@H](CCCN)NC(=O)[C@H](CC(N)=O)N(C)C(=O)[C@H](C(C)C)NC1=O [Compound 23c] (cyclo([NMeL][dL]V[NMeN][dOrn]W))
true (1)

Further cases:
hey, is % LBF Human for this one >= 70%? COc1ccc(C[C@@H]2NC(=O)[C@@H](CCCN)NC(=O)[C@H](CC(N)=O)NC(=O)[C@H](C(C)C)NC(=O)[C@@H](CC(C)C)NC(=O)[C@H](CC(C)C)NC2=O)cc1 [Compound 15c] (cyclo(L[dL]VN[dOrn]Y(Me)))
false (0)

hey, is % LBF Human for this one >= 70%? CC[C@H](C)[C@@H]1NC(=O)[C@@H](Cc2ccc(Cl)cc2)NC(=O)[C@H](CC(C)C)NC(=O)[C@H](Cc2c[nH]c3ccccc23)NC(=O)[C@@H](CCCN)NC(=O)[C@@H](CCCN)NC1=O [Compound 18c] (cyclo(I[dOrn][dOrn]WL[dPhe(4-Cl)]))
false (0)

hey, is % LBF Human for this one >= 70%? CC(C)C[C@@H]1NC(=O)[C@@H](CC(C)C)NC(=O)[C@@H](CCCN)NC(=O)[C@H](CC(N)=O)NC(=O)[C@H](C(C)C)NC(=O)[C@H](Cc2c[nH]c3ccccc23)NC1=O [Compound 21c] (cyclo(LWVN[dOrn][dL]))
false (0)

hey, is % LBF Human for this one >= 70%? CC(C)C[C@@H]1NC(=O)[C@H](Cc2c[nH]c3ccccc23)NC(=O)[C@@H](CCCN)NC(=O)[C@H](CC(N)=O)NC(=O)[C@H](C(C)C)N(C)C(=O)[C@@H](CC(C)C)NC1=O [Compound 22c] (cyclo(L[dL][NMeV]N[dOrn]W))
false (0)

hey, is % LBF Human for this one >= 70%? CC(C)C[C@@H]1NC(=O)[C@H](Cc2c[nH]c3ccccc23)NC(=O)[C@@H](CCCN)NC(=O)[C@H](CC(N)=O)NC(=O)[C@H](C)NC(=O)[C@@H](CC(C)C)NC1=O [Compound 5c] (cyclo(AN[dOrn]WL[dL]))
false (0)

* * *

# Protocol details: Intrinsic clearance (CLint) assay, human liver microsomes
# Type: in vitro ADME
# Study conditions: human, pooled human liver microsomes, pH 7.4, human liver microsomes; read-out: Microsomal t1/2 Human
Non-standard residues stand in square brackets, D forms with d. Residues, ends and D or L forms follow the SMILES beside them. dOrn = NCCC[C@@H](N)C(=O)O
Entries annotated with measured half-life at 0.5 µM
Note: unit min is implicit; provide only the numeric part.

Worked cases, half-life at 0.5 µM given:
# lookup: half-life at 0.5 µM of CC(C)C[C@@H]1NC(=O)[C@H](Cc2c[nH]c3ccccc23)NC(=O)[C@@H](CCCN)NC(=O)[C@@H](CCCN)NC(=O)[C@H](C(C)C)NC(=O)[C@@H](CC(C)C)NC1=O [Compound 9c] (cyclo(L[dL]V[dOrn][dOrn]W))
122

# lookup: half-life at 0.5 µM of CSCC[C@@H]1NC(=O)[C@@H](CC(C)C)NC(=O)[C@H](CC(C)C)NC(=O)[C@H](Cc2c[nH]c3ccccc23)NC(=O)[C@@H](CCCN)NC(=O)[C@H](CC(N)=O)NC1=O [Compound 8c] (cyclo(L[dL]MN[dOrn]W))
30.7

We next turn to a different compound, shown below.
# lookup: half-life at 0.5 µM of CC[C@H](C)[C@@H]1NC(=O)[C@@H](CC(C)C)NC(=O)[C@H](CC(C)C)NC(=O)[C@H](Cc2c[nH]c3ccccc23)NC(=O)[C@@H](CCCN)NC(=O)[C@H](CO)NC1=O [Compound 10c] (cyclo(IS[dOrn]WL[dL]))
5.63

* * *

# Protocol details: Intrinsic clearance (CLint) assay, mouse liver microsomes
# Format: in vitro ADME
# Study conditions: predicted metabolic clearance
Non-standard residues stand in square brackets, D forms with d. Residues, ends and D or L forms follow the SMILES beside them. dPhe(4-Cl) = N[C@H](Cc1ccc(Cl)cc1)C(=O)O; dOrn = NCCC[C@@H](N)C(=O)O
Entries annotated with measured CLpred Mouse

# lookup: CLpred Mouse of CC[C@H](C)[C@@H]1NC(=O)[C@H](CC(C)C)NC(=O)[C@H](Cc2c[nH]c3ccccc23)NC(=O)[C@@H](CCCN)NC(=O)[C@H](CC(N)=O)NC(=O)[C@H](C(C)C)NC1=O [Compound 20c] (cyclo(IVN[dOrn]WL))
<20.50 mL/min/kg

# lookup: CLpred Mouse of CC[C@H](C)[C@@H]1NC(=O)[C@H]([C@@H](C)CC)NC(=O)[C@@H](CC(C)C)NC(=O)[C@H](CC(C)C)NC(=O)[C@H](Cc2c[nH]c3ccccc23)NC(=O)[C@@H](CCCN)NC1=O [Compound 12c] (cyclo(II[dOrn]WL[dL]))
<20.50 mL/min/kg

Further cases:
# lookup: CLpred Mouse of CC[C@H](C)[C@@H]1NC(=O)[C@@H](Cc2ccc(Cl)cc2)NC(=O)[C@H](CC(C)C)NC(=O)[C@H](Cc2c[nH]c3ccccc23)NC(=O)[C@@H](CCCN)NC(=O)[C@@H](CCCN)NC1=O [Compound 18c] (cyclo(I[dOrn][dOrn]WL[dPhe(4-Cl)]))
35.80 mL/min/kg

* * *

# Protocol details: Intrinsic clearance (CLint) assay, mouse liver microsomes
# Type: in vitro ADME
# Study conditions: predicted metabolic clearance
Non-standard residues stand in square brackets, D forms with d. Residues, ends and D or L forms follow the SMILES beside them. *: point of attachment. dOrn = NCCC[C@@H](N)C(=O)O; tBu = CC(C)(C)*
Entries annotated with measured CLpred Mouse

Worked cases, CLpred Mouse given:
# lookup: CLpred Mouse of CC(C)C[C@@H]1NC(=O)[C@H](Cc2c[nH]c3ccccc23)NC(=O)[C@@H](CCCN)NC(=O)[C@@H](CCCN)NC(=O)[C@H](C(C)C)NC(=O)[C@@H](CC(C)C)NC1=O [Compound 9c] (cyclo(L[dL]V[dOrn][dOrn]W))
23.53 mL/min/kg

# lookup: CLpred Mouse of CC[C@H](C)[C@@H]1NC(=O)[C@@H](CC(C)C)NC(=O)[C@H](CC(C)C)NC(=O)[C@H](Cc2c[nH]c3ccccc23)NC(=O)[C@@H](CCCN)NC(=O)[C@H](COC(C)(C)C)NC1=O [Compound 11c] (cyclo(IS(tBu)[dOrn]WL[dL]))
<20.50 mL/min/kg

# lookup: CLpred Mouse of CC(C)C[C@@H]1NC(=O)[C@H](C)NC(=O)[C@@H](CCCN)NC(=O)[C@H](CC(N)=O)NC(=O)[C@H](C(C)C)NC(=O)[C@@H](CC(C)C)NC1=O [Compound 3c] (cyclo(AL[dL]VN[dOrn]))
<20.50 mL/min/kg

We next turn to a different compound, shown below.
# lookup: CLpred Mouse of CC(C)C[C@@H]1NC(=O)[C@H](Cc2c[nH]c3ccccc23)NC(=O)[C@@H](CCCN)NC(=O)[C@H](CC(N)=O)NC(=O)[C@H](C(C)C)NC(=O)[C@@H](C)NC1=O [Compound 6c] (cyclo(L[dA]VN[dOrn]W))
<20.50 mL/min/kg
